Hey, just so you know, these numbers are from ChEMBL document CHEMBL1145930.

Tested on: V79
run-description: Ratio between V79 and V79-NTRpuro was determined
Format: functional, Cricetulus griseus
outcome-measure: Ratio

State recorded Ratio for all listed molecules.
1. COc1cc2cc(C(=O)C3CN(CCl)c4cc(NC(=O)OCc5ncc([N+](=O)[O-])n5CCO)c5ccccc5c43)[nH]c2c(OC)c1OC (stereo not given)
2. NC(=O)c1cc(N(CCBr)CCBr)c([N+](=O)[O-])cc1[N+](=O)[O-]
3. COc1cc2cc(C(=O)C3CN(CCl)c4cc(NC(=O)OCc5c([N+](=O)[O-])ccn5C)c5ccccc5c43)[nH]c2c(OC)c1OC (stereo not given)
4. COc1cc2cc(C(=O)C3CN(CCl)c4cc(NC(=O)OCc5ccc([N+](=O)[O-])o5)c5ccccc5c43)[nH]c2c(OC)c1OC (stereo not given)
5. CCOC(=O)c1cc(COC(=O)Nc2cc3c(c4ccccc24)C(C(=O)c2cc4cc(OC)c(OC)c(OC)c4[nH]2)CN3CCl)c([N+](=O)[O-])n1C (stereo not given)

Result:
1: 1.2; 2: 302; 3: 0.9; 4: 1.1; 5: 2
